- System: SNB-75 CNS
- Experiment Notes: NCI tumour cell line growth inhibition, 48 h
# TGI per entry

{"Compound": "CC1(C)CC(=O)c2[nH]c3ccccc3c2CC(=O)NCCc2cn1cn2", "Measure Unit": "µM", "Limit Operator": ">", "TGI": 100}
{"Compound": "OC1(C(F)(F)F)OCCN=C1C(F)(F)F (configuration not stated)", "Measure Unit": "µM", "Limit Operator": ">", "TGI": 100}
{"Compound": "OCCCCCCCCCCCOc1ccc(C2OCC3(CO2)COC(c2ccc(OCCCCCCCCCCCO)cc2)OC3)cc1 (configuration not stated)", "Measure Unit": "µM", "Limit Operator": ">", "TGI": 50}
{"Compound": "COc1cc2nc(-c3ccc(Cl)cc3)cc(OCCCN3CCCCC3)c2cc1OC", "Measure Unit": "µM", "Limit Operator": "=", "TGI": 6.19}
{"Compound": "CN(CC(=O)O)c1ncc2c(n1)-c1ccccc1SC2", "Measure Unit": "µM", "Limit Operator": ">", "TGI": 100}
{"Compound": "COc1ccc(CN2C(=O)/C(=C\\C(=O)c3ccc(OCCN4CCCCC4)cc3)c3ccccc32)cc1", "Measure Unit": "µM", "Limit Operator": "=", "TGI": 27.6}
{"Compound": "CCC[CH2][Sn]1([CH2]CCC)[O]N=C(c2ccccc2)C(c2ccccc2)[O]1 (configuration not stated)", "Measure Unit": "µM", "Limit Operator": "=", "TGI": 4.1}

* * *

- Tested on: SF-295 CNS
- Experiment Notes: NCI tumour cell line growth inhibition, 48 h
# TGI per entry

{"Molecule": "CC(C)C(=O)[C@@]1(C)SC[C@H]2CCN=C21", "Assayed Target": "SF-295 CNS", "TGI": "> 100 µM"}
{"Molecule": "COC(=O)C1=C(O)c2cc(OC)c(OC)cc2C(c2ccc(OC)c(OC)c2)C1 (stereo not drawn)", "Assayed Target": "SF-295 CNS", "TGI": "> 100 µM"}
{"Molecule": "CCCn1c2ccccc2c2ccc3c(c21)C(=O)C=CC3=O", "Assayed Target": "SF-295 CNS", "TGI": "> 10 µM"}

* * *

- Tested on: NCI-H23 lung
- Experiment Notes: NCI tumour cell line growth inhibition, 48 h
Experimental Endpoint: TGI

{"Compound": "CC(C)c1ccccc1NC(=O)CCc1n[nH]c(=S)o1", "Assayed Target": "NCI-H23 lung", "Value Measured": "> 100 µM"}
{"Compound": "OC1(C(F)(F)F)OCCN=C1C(F)(F)F (stereo not drawn)", "Assayed Target": "NCI-H23 lung", "Value Measured": "> 100 µM"}
{"Compound": "CS(=O)(=O)O[C@H]1CN2C[C@@H](O)[C@@H](O)[C@H]2[C@H]1CO", "Assayed Target": "NCI-H23 lung", "Value Measured": "> 100 µM"}

* * *

# TGI per entry
- Test system: SK-MEL-5 melanoma
- Experiment Notes: NCI tumour cell line growth inhibition, 48 h

{"Compound": "OC1(C(F)(F)F)OCCN=C1C(F)(F)F (centres undefined)", "TGI": "> 100 µM"}
{"Compound": "OCCCCCCCCCCCOc1ccc(C2OCC3(CO2)COC(c2ccc(OCCCCCCCCCCCO)cc2)OC3)cc1 (centres undefined)", "TGI": "> 50 µM"}
{"Compound": "O=C1C2CC=CCC2C(=O)N1n1c(Cc2ccc(Cl)cc2)n[nH]c1=O (centres undefined)", "TGI": "> 100 µM"}
{"Compound": "CC(C)(C)NC(NC(C)(C)C)=C(/C=C(/Cl)[N+](=O)[O-])[N+](=O)[O-]", "TGI": "> 100 µM"}

The values you see were collected from PubChem BioAssay (NCI).
